- target or system: BTK^WT (Homo sapiens (Human), UniProt Q06187)
- Sequence (Q06187 whole entry): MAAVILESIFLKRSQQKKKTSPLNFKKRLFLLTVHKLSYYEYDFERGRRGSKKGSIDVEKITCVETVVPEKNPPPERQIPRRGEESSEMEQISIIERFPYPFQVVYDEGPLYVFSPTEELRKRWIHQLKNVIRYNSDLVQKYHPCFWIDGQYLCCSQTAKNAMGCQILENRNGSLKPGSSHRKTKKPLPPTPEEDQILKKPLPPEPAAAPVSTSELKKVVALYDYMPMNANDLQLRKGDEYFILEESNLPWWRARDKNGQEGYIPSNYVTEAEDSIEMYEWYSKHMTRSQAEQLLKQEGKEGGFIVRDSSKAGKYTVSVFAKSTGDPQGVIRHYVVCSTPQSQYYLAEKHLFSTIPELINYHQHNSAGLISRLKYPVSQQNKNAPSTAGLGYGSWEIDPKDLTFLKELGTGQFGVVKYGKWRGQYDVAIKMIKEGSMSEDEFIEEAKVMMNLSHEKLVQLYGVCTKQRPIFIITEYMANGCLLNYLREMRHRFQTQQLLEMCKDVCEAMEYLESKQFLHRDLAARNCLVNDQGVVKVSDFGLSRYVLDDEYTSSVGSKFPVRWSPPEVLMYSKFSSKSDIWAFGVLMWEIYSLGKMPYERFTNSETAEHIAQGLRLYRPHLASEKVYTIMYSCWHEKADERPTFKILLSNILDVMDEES
- method: BTK^WT binding affinity (TR-FRET, LanthaScreen)
- settings: TR-FRET binding, 5 h incubation; read-out: BTK^WT IC50
pIC50: −log10 of the molar value.
readout label: pIC50

Problem: Indicate its recorded pIC50; the compound in question is `COc1ccccc1C(=O)NCc1ccc(-c2nn([C@H]3C=C[C@@H](OC(=O)C(C)(C)C)C3)c3ncnc(N)c23)cc1`
Solution: 7.00 to 8.00

Problem: Output pIC50 of `CCO[C@H]1C=C[C@H](n2nc(-c3ccc(CNC(=O)c4ccccc4OC)cc3)c3c(N)ncnc32)C1`
Solution: 7.00 to 8.00

Problem: Give a short answer stating reported pIC50 for `COc1ccccc1C(=O)NCc1ccc(-c2nn(C3CCOCC3)c3ncnc(N)c23)cc1` .
Solution: ≥ 8.00

Problem: State its pIC50 for this compound: `COc1ccc(C)cc1C(=O)NCc1ccc(-c2nn(C3CCCC3)c3ncnc(N)c23)cc1`
Solution: ≥ 8.00

====

I'd be grateful if you could share measured IC50 for these entries.
- target or system: BTK^WT (Homo sapiens (Human), UniProt Q06187)
- method: BTK^WT binding affinity (TR-FRET, LanthaScreen)
- settings: TR-FRET binding, 5 h incubation; read-out: BTK^WT IC50

Problem: Given COc1ccc(F)cc1C(=O)NCc1ccc(-c2nn([C@H]3C=C[C@H](O)C3)c3ncnc(N)c23)cc1 [Example 53] , respond with its IC50.
Solution: 0.01 to 0.1 µM

Problem: Give IC50 for the following compound: COc1ccccc1C(=O)NCc1ccc(-c2nn(CC(F)(F)F)c3ncnc(N)c23)cc1 [Example 90]
Solution: 0.01 to 0.1 µM

Problem: State its IC50 for this compound: COc1ccccc1C(=O)NCc1ccc(-c2nn(C3CCC4(C3)OCCO4)c3ncnc(N)c23)cc1 (stereo not shown) [Example 25]
Solution: ≤ 0.01 µM

Problem: Given the compound Nc1ncnc2c1c(-c1ccc(CNC(=O)c3cc4ccccc4o3)cc1)nn2C1CCCC1 [Example 83] , write its reported IC50.
Solution: > 10 µM

====

- target or system: BTK^WT (Homo sapiens (Human), UniProt Q06187)
- method: BTK^WT binding affinity (TR-FRET, LanthaScreen)
- settings: TR-FRET binding, 5 h incubation; read-out: BTK^WT IC50
So I've got a bunch of molecules here, and I need their IC50 values.

Problem: Supply measured IC50 of `COc1ccccc1C(=O)NCc1ccc(-c2nn(C3CCCC3)c3ncnc(N)c23)c(OC)c1` in your reply.
Solution: ≤ 10 nM

Problem: For the molecule COc1ccccc1C(=O)NCc1ccc(-c2nn(C3CCC(O)CC3)c3ncnc(N)c23)cc1 (single isomer, unassigned) [Example 23-isomer1] , give its reported IC50.
Solution: ≤ 10 nM

Problem: Provide IC50 value for the following molecule: `COc1ccc(C)cc1C(=O)NCc1ccc(-c2nn(C3CCCC3)c3ncnc(N)c23)cc1F`
Solution: ≤ 10 nM

Problem: Indicate the recorded IC50 value for this molecule: COc1ccccc1C(=O)NCc1ccc(-c2nn(C3CCCC(=O)C3)c3ncnc(N)c23)cc1 (centres unmarked)
Solution: ≤ 10 nM

Problem: Give the reported IC50 for this molecule. `COc1ccccc1C(=O)NCc1ccc(-n2nc(C3CCCC3)c3ncnc(N)c32)cc1`
Solution: ≤ 10 nM

Problem: Give a short answer stating reported IC50 for `COc1cc(-c2nn(C3CCCC3)c3ncnc(N)c23)ccc1CNC(=O)c1ccccc1OC` .
Solution: ≤ 10 nM

Problem: # return recorded IC50 for entry `COCCO[C@H]1C=C[C@H](n2nc(-c3ccc(CNC(=O)c4ccccc4OC)cc3)c3c(N)ncnc32)C1`
Solution: 100 to 1000 nM

Problem: Provide measured IC50 value, entry: `Nc1ncnc2c1c(-c1ccc(CNC(=O)c3ccc4ccccc4c3)cc1)nn2C1CCCC1`
Solution: 100 to 1000 nM

====

- target or system: BTK^C481S (Homo sapiens (Human), UniProt Q06187, C481S)
- Sequence (Q06187 whole entry C481S): as the sequence (Q06187 whole entry) above, with C481S counted along it
- method: BTK^C481S binding affinity (TR-FRET, LanthaScreen)
- settings: 5 h incubation
Kindly state IC50 for each of the entries shown.

Problem: Identify measured IC50 corresponding to Nc1ncnc2c1c(-c1ccc(CNC(=O)C3CNc4ccccc4O3)cc1)nn2C1CCCC1 (stereo not drawn)
Solution: > 10 µM

Problem: Item `COc1cc2ccccc2cc1C(=O)NCc1ccc(-c2nn(C3CCCC3)c3ncnc(N)c23)cc1` : provide IC50
Solution: 0.1 to 1 µM

Problem: Give the value of IC50 reported for the following: `COc1ccccc1C(=O)NCc1ccc(-c2nn([C@H]3C=C[C@H](NC(C)=O)C3)c3ncnc(N)c23)cc1`
Solution: ≤ 0.01 µM

Problem: Supply recorded IC50 for COc1ccccc1C(=O)NCc1ccc(-c2nn(C3CCC(C(=O)O)CC3)c3ncnc(N)c23)cc1 (stereo not drawn) here.
Solution: ≤ 0.01 µM

Problem: Look up and state reported IC50 for `COc1ccccc1C(=O)NCc1ccc(-c2nn(C3CC=CC3)c3ncnc(N)c23)cc1`
Solution: ≤ 0.01 µM

Problem: Supply reported IC50 belonging to this compound: `COc1ccccc1C(=O)NCc1ccc(-c2nn(C3CCCC3)c3ncnc(N)c23)cc1`
Solution: ≤ 0.01 µM

Problem: Write down IC50 measured for item `COc1ccccc1C(=O)NCc1ccc(-c2nn(C3CCCC3)c3ncnc(N)c23)c(C)c1`
Solution: ≤ 0.01 µM

Problem: Specify IC50 for `COc1ccc2ccccc2c1C(=O)NCc1ccc(-c2nn(C3CCCC3)c3ncnc(N)c23)cc1` and stop.
Solution: 0.1 to 1 µM

Problem: Determine its reported IC50: `COc1ccccc1C(=O)NC1(c2ccc(-c3nn(C4CCCC4)c4ncnc(N)c34)cc2)CC1`
Solution: 1 to 10 µM

Problem: Could you please provide reported IC50 for COc1ccccc1C(=O)NCc1ccc(-c2nn(C3CCCC(=O)C3)c3ncnc(N)c23)cc1 (stereo not drawn) ? Thanks!
Solution: ≤ 0.01 µM

Problem: Tell me measured IC50 for `COc1cc(-c2nn(C3CCCC3)c3ncnc(N)c23)ccc1CNC(=O)c1ccccc1OC` please.
Solution: ≤ 0.01 µM

Problem: Identify measured IC50 corresponding to COc1ccccc1C(=O)NCc1ccc(-c2nn(C3CCC(O)CC3)c3ncnc(N)c23)cc1 (single isomer, unassigned) [Example 23-isomer1]
Solution: ≤ 0.01 µM

Problem: Give the measured IC50 for `CC(C)Oc1ccccc1C(=O)NCc1ccc(-c2nn(C3CCCC3)c3ncnc(N)c23)cc1`
Solution: ≤ 0.01 µM

Problem: Annotate the compound COc1ccccc1C(=O)NCc1ccc(-c2nn([C@H]3CC[C@@H](C(=O)N(C)C)CC3)c3ncnc(N)c23)cc1 (single isomer, unassigned; isomer 2) [33-isomer 2] with its measured IC50.
Solution: ≤ 0.01 µM

Problem: Please indicate IC50 recorded for COc1ccccc1C(=O)NCc1ccc(-c2nn(C3CC4CC4C3)c3ncnc(N)c23)cc1 (stereo not drawn)
Solution: ≤ 0.01 µM

Problem: Write down IC50 measured for item `CCO[C@H]1C=C[C@H](n2nc(-c3ccc(CNC(=O)c4ccccc4OC)cc3)c3c(N)ncnc32)C1`
Solution: 0.01 to 0.1 µM

Problem: For `COc1ccc(F)cc1C(=O)NCc1ccc(-c2nn(C3CCCC3)c3ncnc(N)c23)cc1` , write its IC50.
Solution: ≤ 0.01 µM

Problem: Give the measured IC50 for `COc1ccccc1C(=O)NCc1ccc(-c2nn(C3CCCC3)c3ncnc(N)c23)cc1C`
Solution: ≤ 0.01 µM

Problem: # return recorded IC50 for input `COc1ccccc1C(=O)NCc1ccc(-c2nn([C@H]3C=C[C@H](N)C3)c3ncnc(N)c23)cc1`
Solution: 0.01 to 0.1 µM

Problem: Give a short answer stating reported IC50 for `COc1ncccc1C(=O)NCc1ccc(-c2nn(C3CCCC3)c3ncnc(N)c23)cc1` .
Solution: 0.01 to 0.1 µM

Problem: Answer with the recorded IC50 for the compound listed here: `COc1ccccc1C(=O)NCc1ccc(-c2nn(CC(C)C)c3ncnc(N)c23)cc1`
Solution: ≤ 0.01 µM

Problem: Given `COc1ccc(C)cc1C(=O)NCc1ccc(-c2nn(C3CCCC3)c3ncnc(N)c23)cc1` , respond with its IC50.
Solution: ≤ 0.01 µM

Problem: Query IC50 for COc1ccccc1C(=O)NCc1ccc(-c2nn(C3CCC(C)(O)CC3)c3ncnc(N)c23)cc1 (single isomer, unassigned) [Example 92]
Solution: ≤ 0.01 µM

Problem: # return recorded IC50 for entry `COc1ccc(C)cc1C(=O)NCc1ccc(-c2nn(C3CCCC3)c3ncnc(N)c23)cc1F`
Solution: ≤ 0.01 µM

Problem: Using the record for COc1ccc(F)cc1C(=O)NCc1ccc(-c2nn(C3CCC(C)(O)CC3)c3ncnc(N)c23)cc1 (single isomer, unassigned) [Example 95] , state its measured IC50.
Solution: ≤ 0.01 µM

Problem: Consider the compound COc1ccccc1C(=O)NCc1ccc(-c2nn(C3CCC4(C3)OCCO4)c3ncnc(N)c23)cc1 (stereo not drawn) and give its recorded IC50.
Solution: ≤ 0.01 µM

Problem: Return value of IC50 for input COc1ccccc1C(=O)NCc1ccc(-c2nn([C@@H]3C[C@@H](O)C4CC43)c3ncnc(N)c23)cc1 (stereo partly drawn) , no commentary.
Solution: ≤ 0.01 µM

Problem: Write down IC50 measured for item COc1ccccc1C(=O)NCc1ccc(-c2nn(C3CCC(C)(O)CC3)c3ncnc(N)c23)cc1 (single isomer, unassigned) [Example 91]
Solution: ≤ 0.01 µM

Problem: Annotate the compound `COc1ccccc1C(=O)NCc1ccc(-c2nn(C3CCOCC3)c3ncnc(N)c23)cc1` with its measured IC50.
Solution: ≤ 0.01 µM

Problem: Look up and report measured IC50 for this entry: `COc1ccccc1C(=O)NCc1ccc(-c2nn([C@@H]3CCc4ccccc43)c3ncnc(N)c23)cc1`
Solution: ≤ 0.01 µM
